Would you mind telling me the reported selectivity ratio of each entry?
test: Therapeutic index, ratio of average IC50 for human MRC5 and BJ cells to IC50 for antileishmanial activity against Leishmania major; type: toxicity; details: MRC5 and BJ cells (average IC50) versus Leishmania major, read-out: TI

For every item below, please supply its selectivity ratio.
1. CC(=O)OCCC1S/C(=N\N=C\c2c(-c3ccccc3)[nH]c3ccccc23)NC1=O (stereo unspecified)
2. O=C1CS/C(=N\N=C\c2c(-c3ccccc3)[nH]c3ccccc23)N1
3. C[C@@H]1CC[C@@H]2[C@@H](C1)c1sc(=O)n(CC(=O)Nc3ccccc3C(F)(F)F)c1SC2(C)C
4. O=C(CC1S\C(=N/N=C\C=C\c2ccccc2)N(Cc2ccco2)C1=O)Nc1cccc(C(F)(F)F)c1 (stereo unspecified)
5. O=C1N/C(=N/N=C/c2c(-c3ccc(Cl)cc3)[nH]c3ccccc23)SC1CCO (stereo unspecified)
6. CCC1S/C(=N\N=C\c2c(-c3ccc(Cl)cc3)[nH]c3ccccc23)NC1=O (stereo unspecified)

11.3
> 29.1
> 2.78
0.75
1.13
0.36
